Overview of recorded pEC50 for various molecules
Target: Human GPR35 (Homo sapiens, UniProt Q9HC97)
Sequence (Q9HC97 whole entry): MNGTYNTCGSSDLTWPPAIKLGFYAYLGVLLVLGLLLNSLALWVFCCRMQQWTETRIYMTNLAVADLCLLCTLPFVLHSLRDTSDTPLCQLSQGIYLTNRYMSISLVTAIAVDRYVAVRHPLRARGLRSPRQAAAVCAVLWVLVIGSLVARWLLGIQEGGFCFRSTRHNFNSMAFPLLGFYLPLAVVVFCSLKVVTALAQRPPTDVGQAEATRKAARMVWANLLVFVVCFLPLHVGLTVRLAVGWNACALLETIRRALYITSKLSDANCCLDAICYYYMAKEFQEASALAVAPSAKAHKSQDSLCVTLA
Assay: Beta-Arrestin Assay (Tango U2OS cells, LiveBLAzer-FRET B/G)
Type: cell-based
Conditions: Human GPR35 expressing Tango U2OS cells, 5 hours treatment
pEC50: −log10 of the molar value.

Consider the following illustrative entries.
> print(dat)
                                   molecule  recorded.value
1  CCOc1cc(-c2ccc(C(=O)O)cc2)ccc1-c1nc2[nH]nnc2c(=O)[nH]1 [Compound 111]          ≥ 5.00
2  CCOc1cc(-c2ccc(C(=O)O)s2)ccc1-c1nc2[nH]nnc2c(=O)[nH]1 [Compound 117]          ≥ 5.00

Which measured pEC50 value corresponds to CCOc1cc(C(=O)Nc2ccccn2)ccc1-c1nc2[nH]nnc2c(=O)[nH]1 [Compound 140] ? ≥ 5.00

Then what about the molecule CCOc1cc(-c2ccccc2)ccc1-c1nc2[nH]nnc2c(=O)[nH]1 [Compound 101] ? ≥ 5.00

Then what about the molecule CCOc1cc(C(=O)N(C)c2ccccc2)ccc1-c1nc2[nH]nnc2c(=O)[nH]1 [Compound 139] ? < 5.00

Then what about the molecule O=c1[nH]c(-c2ccc(CO)cc2)nc2[nH]nnc12 [Compound 148] ? < 5.00

Then what about the molecule CCOc1cc(C(=O)N2CCCC2)ccc1-c1nc2[nH]nnc2c(=O)[nH]1 [Compound 133] ? ≥ 5.00

Then what about the molecule CCOc1cc(Cc2ccc(C(=O)O)cc2)ccc1-c1nc2[nH]nnc2c(=O)[nH]1 [Compound 177] ? ≥ 5.00
